Attribution: patent US8476197B2

Measured Log P of individual entries
Conditions: pH 2.7
Marks after values point to notes of the source that are not given here.

Worked cases, answers included:
> print(dat)
                                   compound  measured.endpoint    result
1  CCOC(=O)C(C#N)=C(Nc1ccc(N(C)C)cc1)c1cccnc1Cl              Log P  3.17^[a]
2  CONC(=O)C(C#N)=C(NC(C)c1ccccn1)c1cccnc1Cl (centres unmarked)              Log P  1.46^[a]
3  CCOC(=O)C(C#N)=C(NC(C)C1CC1)c1cc(Cl)sc1Cl (centres unmarked) [Compound 887]              Log P  4.36^[a]
4  CCOC(=O)CC(C)NC(=C(C#N)C(=O)OCC)c1cn(C)nc1C(F)F (centres unmarked)              Log P  2.66^[a]

Supply recorded Log P for CCOC(=O)C(C#N)=C(NC(C)C(C)CC)c1scnc1Cl (racemic) here.
3.92^[a]

* * *

Measured Log P of individual entries
Settings: pH 2.7
Marks after values point to notes of the source that are not given here.

> print(dat)
                                   compound    result
1  CCOC(=O)C(C#N)=C(NC(C)c1ccc(Cl)cc1)c1sccc1Br (centres unmarked)  4.42^[a]
2  CCOC(=O)C(C#N)=C(NC(C#N)c1cnn(-c2ccccc2)c1)c1cn(C)nc1C(F)F (centres unmarked)  3.15^[a]
3  COC(=O)C(C#N)=C(NC(C)(C)C#Cc1ccc(C)cc1)c1sc(C)nc1C(F)(F)F  4.51^[a]

Supply recorded Log P for CCOC(=O)C(C#N)=C(NC(C)c1nccs1)c1ccnc(SC)c1Cl (centres unmarked) here.
3.53^[a]

Supply recorded Log P for COC(=O)C(C#N)=C(NC(C)(C)CF)c1cccnc1Cl here.
2.31^[a]

Supply recorded Log P for CCOC(=O)C(C#N)=C(NCc1csc(-c2ccccc2)n1)c1cccnc1Cl here.
3.63^[a]

Supply recorded Log P for CCOC(=O)C(C#N)=C(NC1CCc2ccccc21)c1cn(C)nc1C(F)F (centres unmarked) here.
3.42^[a]

Supply recorded Log P for CCOC(=O)C(C#N)=C(NC(C)C(C)C)c1cn(C)nc1C(C)C (centres unmarked) here.
3.46^[a]

* * *

Measured Log P of individual entries
Settings: pH 2.7
Marks after values point to notes of the source that are not given here.

Worked cases, answers included:
> print(dat)
                                   compound  measured.endpoint    result
1  CCOC(=O)C(C#N)=C(NC(C)c1nc(C)c(C)s1)c1conc1C (stereo not shown)              Log P  3.02^[a]
2  COC(=O)C(C#N)=C(NCc1ccccn1)c1sc(C)nc1C(F)(F)F              Log P  2.37^[a]
3  COCCNC(=O)C(C#N)=C(NC(C)c1nccs1)c1cn(C)nc1C(F)F (racemic)              Log P  1.96^[a]

Next compound, Log P to be filled in.
Supply recorded Log P for CCOC(=O)C(C#N)=C(NC(C)CC(C)C)c1sccc1C(F)(F)F (racemic) here.
4.54^[a]

* * *

Settings: pH 2.7
Marks after values point to notes of the source that are not given here.
Measured Log P of individual entries

> print(dat)
                                   molecule    result
1  CCOC(=O)C(C#N)=C(NC(C)c1nccs1)c1ccnc(Cl)c1Br (racemic)  2.96^[a]
2  CCOC(=O)C(C#N)=C(Nc1ccc(SC)cc1)c1sc(C)nc1C(F)(F)F  3.87^[a]
3  CC#CC(C)NC(=C(C#N)C(=O)NCC)c1cccnc1Cl (stereo not drawn)   2.5^[a]
4  CC#CC(C)NC(=C(C#N)C(=O)OCC)c1cccnc1Cl (stereo not drawn) [Compound 1198]  3.02^[a]
5  CCOC(=O)C(C#N)=C(NC(C)c1ccc(Cl)cc1)c1sc(Cl)nc1Cl (racemic)  4.54^[a]
6  C=CC(COCc1ccccc1)NC(=C(C#N)C(=O)OCC)c1cccnc1Cl (stereo not drawn)   3.8^[a]

Supply recorded Log P for CCC(C)OC(=O)C1(NC(=C(C#N)C(=O)OC)c2cccnc2Cl)CC1 (stereo not drawn) here.
2.23^[a]

Supply recorded Log P for CCOC(=O)C(C#N)=C(NC(C)c1nc(C)c(C)s1)c1c(C)nn(C)c1Cl (stereo not drawn) here.
3.12^[a]

Supply recorded Log P for CCOC(=O)C(C#N)=C(NC(C)COc1ccc(C)cc1)c1cn(C)nc1C(F)F (stereo not drawn) here.
3.71^[a]

Supply recorded Log P for CCOC(=O)C(C#N)=C(NC(C)c1ncc(C)s1)c1sc(C)nc1C(F)(F)F (stereo not drawn) here.
3.46^[a]

Supply recorded Log P for CCOC(=O)C(C#N)=C(NC(C)C(C)C)c1ccnc(Cl)c1Cl (stereo not drawn) here.
3.92^[a]

Supply recorded Log P for CCCCCC(C)NC(=C(C#N)C(=O)OC)c1sc(C)nc1C(F)(F)F (stereo not drawn) [Compound 850] here.
4.41^[a]

Supply recorded Log P for CCOC(=O)C(C#N)=C(NC(C)c1ccccn1)c1ccnc(Br)c1F (racemic) here.
3^[a]

Supply recorded Log P for COC(=O)C(C#N)=C(NC(C)CN(C)C)c1cn(C)nc1C(F)F (racemic) here.
0.82^[a]

Supply recorded Log P for CCOC(=O)C(C#N)=C(NC(C)C(=O)NC)c1cccnc1C(F)(F)F (stereo not drawn) here.
2.05^[a]

Supply recorded Log P for CCOC(=O)C(C#N)=C(NCc1nc(C(F)(F)F)cs1)c1sccc1C(F)(F)F here.
3.51^[a]

Supply recorded Log P for CCOC(=O)C(C#N)=C(NC(C)C(N)=O)c1ncc(Cl)cc1Cl (stereo not drawn) here.
2.01^[a]

Supply recorded Log P for CCOC(=O)C(C#N)=C(NC(C)C(=O)NC)c1cnn(C)c1Cl (stereo not drawn) here.
1.63^[a]

* * *

Settings: pH 7.5
measured_endpoint: Log P

Worked cases, answers included:
> print(dat)
                                   compound  result
1  COC(=O)C(C#N)=C(Nc1ccccc1OC)c1cccnc1Cl [Compound 335]    2.56
2  CCOC(=O)C(C#N)=C(NC1CCSC1=O)c1cccnc1Cl (racemic) [Compound 44]    2.23
3  CCOC(=O)C(C#N)=C(NC(C)CSCC)c1cccnc1Cl (centres unmarked) [Compound 586]    3.06
4  CCOC(=O)C(C#N)=C(NC(C)C(C)C)c1cccnc1Cl (centres unmarked) [Compound 934]    3.21

Next compound, Log P to be filled in.
Supply recorded Log P for C#CCNC(=O)C(C#N)=C(NC(C)C(C)C)c1cccnc1Cl (centres unmarked) [Compound 991] here.
2.68

* * *

Details: pH 2.7
Marks after values point to notes of the source that are not given here.
Measured Log P of individual entries

> print(dat)
                                   compound    result
1  CCOC(=O)C(C#N)=C(NC(C)C1CCCO1)c1cc(C)oc1C (centres unmarked) [Compound 118]  3.27^[a]
2  CCOC(=O)C(C#N)=C(NCc1ncccc1C(F)(F)F)c1cccnc1Cl [Compound 1554]     3^[a]

Supply recorded Log P for CCOC(=O)C(C#N)=C(NC(C)COc1ccccc1C)c1cccnc1Cl (centres unmarked) [Compound 1155] here.
4.01^[a]

Supply recorded Log P for CCC1CCCC(C)C1NC(=C(C#N)C(=O)OC)c1cccnc1Cl (centres unmarked) [Compound 1060] here.
3.99^[a]

Supply recorded Log P for CCOC(=O)C(C#N)=C(NC(C)C1CC1)c1cccnc1Cl (centres unmarked) [Compound 909] here.
3.1^[a]

* * *

Measured Log P of individual entries
Conditions: pH 2.7
Marks after values point to notes of the source that are not given here.

> print(dat)
                                   compound  result
1  CCOC(=O)C(C#N)=C(Nc1cccc2oc(C)nc12)c1cccnc1Cl [Compound 1555]   3^[a]

Next compound, Log P to be filled in.
Supply recorded Log P for CCOC(=O)C(C#N)=C(NC(C)COC)c1cnn(C)c1Cl (stereo not drawn) [Compound 1486] here.
2.42^[a]

* * *

Conditions: pH 2.7
Marks after values point to notes of the source that are not given here.
Measured Log P of individual entries

Supply recorded Log P for CCOC(=O)C(C#N)=C(NCc1ccc(C)c(C)n1)c1cn(C)nc1C(Cl)Cl [Compound 1575] here.
2.07^[a]

Supply recorded Log P for CCOC(=O)C(C#N)=C(NC(C)CN1CCOCC1)c1cccnc1Cl (racemic) [Compound 274] here.
1.3^[a]

Supply recorded Log P for CCOC(=O)C(C#N)=C(NC(C)c1ccc(F)cc1)c1sccc1Br (mixture of isomers) [Compound 446] here.
4.06^[a]

Supply recorded Log P for COC(=O)C(C#N)=C(NC(C(=O)OC)C(C)C)c1sc(C)nc1C(F)(F)F (racemic) [Compound 666] here.
3.29^[a]

Supply recorded Log P for CSCCNC(=O)C(C#N)=C(NC(C)C(C)C)c1cccnc1Cl (centres unmarked) [Compound 1510] here.
3.29^[a]

Supply recorded Log P for C#CC(C)(C)NC(=C(C#N)C(=O)OCC)c1cn(C)nc1OC [Compound 1034] here.
2.44^[a]

Supply recorded Log P for CCOC(=O)/C(C#N)=C(\NC(C)c1nc(C)c(C)s1)c1sccc1Cl (centres unmarked) [Compound 150] here.
3.76^[a]

Supply recorded Log P for CCOC(=O)C(C#N)=C(NC(C)C(=O)Nc1ccc2ccccc2c1)c1sccc1C(F)(F)F (racemic) [Compound 653] here.
4.01^[a]

Supply recorded Log P for CCOC(=O)C(C#N)=C(NC(C)CCc1ccccc1)c1sc(C)nc1C(F)(F)F (mixture of isomers) [Compound 449] here.
4.36^[a]

Supply recorded Log P for CCOC(=O)C(C#N)=C(NC(C)(C)CSC)c1cn(C)nc1C(F)F [Compound 703] here.
2.84^[a]

Supply recorded Log P for CC(C)C(C)NC(=C(C#N)C(=O)N1CCSC1)c1cccnc1Cl (centres unmarked) [Compound 1509] here.
3.19^[a]

Supply recorded Log P for CCOC(=O)C(C#N)=C(Nc1ccc2ncsc2c1)c1sc(C)nc1C(F)(F)F [Compound 479] here.
2.98^[a]

Supply recorded Log P for C#CC(C)(C)NC(=C(C#N)C(=O)OC)c1cccnc1Cl [Compound 1028] here.
2.23^[a]

Supply recorded Log P for CCOC(=O)C(C#N)=C(NC(C)c1ncccn1)c1cccnc1Cl (centres unmarked) [Compound 329] here.
2.13^[a]

Supply recorded Log P for CCOC(=O)C(C#N)=C(NC(C)C(N)=O)c1cn(C)nc1C(F)(F)F (centres unmarked) [Compound 635] here.
1.78^[a]

Supply recorded Log P for CCOC(=O)C(C#N)=C(NC(C)C(C)C)c1sccc1C(F)(F)F (centres unmarked) [Compound 944] here.
4.21^[a]

Supply recorded Log P for CCOC(=O)C(C#N)=C(NC(C)c1nccs1)c1c(C(F)(F)F)nn(C)c1F (mixture of isomers) [Compound 308] here.
3.09^[a]
